Taken from paper PMC11382887.

# SYSTEM_UNDER_TEST: HNF-1A DD-DBD (HNF-1A 1-279) (UniProt P20823 1-279)
# Sequence (P20823 1-279): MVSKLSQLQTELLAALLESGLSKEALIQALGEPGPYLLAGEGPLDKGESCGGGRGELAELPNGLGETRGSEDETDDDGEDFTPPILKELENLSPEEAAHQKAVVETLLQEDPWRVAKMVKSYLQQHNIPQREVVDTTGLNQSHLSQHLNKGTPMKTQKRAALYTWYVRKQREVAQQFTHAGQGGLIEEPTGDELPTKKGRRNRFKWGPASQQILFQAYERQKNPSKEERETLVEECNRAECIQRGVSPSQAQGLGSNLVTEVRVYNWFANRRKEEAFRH
# MEASUREMENT_DESCRIPTION: ITC; 2:1 protein:DNA stoichiometry; ITC: 20 mM HEPES pH 7.5, 200 mM NaCl, 1 mM TCEP, 30 C, 250 uM dsDNA into 50 uM protein; BLI: streptavidin sensor with BiotinTEG dsDNA, buffer not in material
# EXPERIMENTAL_PARAMETERS: protein: recombinant; tags: His6 removed by TEV; chain copies: 2; label: 5' BiotinTEG on forward strand (BLI only); blunt
pKd: −log10 of the molar value.

{"BINDER": "P2 WT (P2-HNF4A promoter) (dsDNA) DNA 1: ACTGGTTACTCTTTAACGTAT DNA 2: ATACGTTAAAGAGTAACCAGT", "pKd": 6.52}
